Origin of measurements: ChEMBL document CHEMBL1152538

Experiment: Cytotoxicity against human erythrocytes assessed as hemolysis at 12 uM after 4 hrs by twofold dilution assay
Assay type: cell-based, Erythrocyte
Conditions: read-out: Activity
Where a SMILES comes first, the peptide text is derived from it. [ ]: non-standard residue; d: D form. Orn = NCCC[C@H](N)C(=O)O
Parameter measured: hemolysis at 4 h, 12 µM (%)
Entry rule: numbers only, all in %.

Notebook: CC(C)C[C@@H]1NC(=O)[C@H](CCCN)NC(=O)[C@H](C(C)C)NC(=O)[C@@H]2CCCN2C(=O)[C@@H](Cc2ccccc2)NC(=O)[C@H](CC(C)C)NC(=O)[C@H](CCCN)NC(=O)[C@H](C(C)C)NC(=O)[C@@H]2CCCN2C(=O)[C@@H](Cc2ccccc2)NC1=O [GRAMICIDIN S] (cyclo(L[dF]PV[Orn]L[dF]PV[Orn])) , hemolysis at 4 h, 12 µM read as 50

* * *

Tested on: Streptococcus mitis
Test: Antibacterial activity against Streptococcus mitis ATCC 33399 after 24 to 96 hrs by well microplate assay
Type: functional
*1 amine or outer side, *2 acyl side, *3 side chain or, on linkers, in order; H or OH if unused. Where a SMILES comes first, the peptide text is derived from it. [ ]: non-standard residue; d: D form. The star is where a group is joined. X4 = O=C([C@H](Cc1ccc(N(Cc2ccccc2)Cc2ccccc2)cc1)N[*:1])[*:2]; Phe(4-NO2) = N[C@@H](Cc1ccc([N+](=O)[O-])cc1)C(=O)O; X2 = C[N+](C)(C)c1ccc(C[C@H](N[*:1])C(=O)[*:2])cc1; X3 = O=C([C@H](Cc1ccc(NCc2ccccc2)cc1)N[*:1])[*:2]; Phe(4-NH2) = Nc1ccc(C[C@H](N)C(=O)O)cc1; Isobutyryl = CC(C)C(=O)*; Orn = NCCC[C@H](N)C(=O)O; Piv = CC(C)(C)C(=O)*
Consider the following compounds; for each one, report its MIC.
Entry rule: numbers only, all in mg/L.

Bench note, Streptococcus mitis: entry CC(C)C[C@@H]1NC(=O)[C@H](CCCN)NC(=O)[C@H](C(C)C)NC(=O)[C@@H]2CCCN2C(=O)[C@H](Cc2ccccc2)NC(=O)[C@H](CC(C)C)NC(=O)[C@H](CCCN)NC(=O)[C@H](C(C)C)NC(=O)[C@@H]2CCCN2C(=O)[C@H](Cc2ccc(NCc3ccccc3)cc2)NC1=O (cyclo(FPV[Orn]L[X3]PV[Orn]L)) , its MIC = 64

Bench note, Streptococcus mitis: entry CC(C)C[C@@H]1NC(=O)[C@H](CCCN)NC(=O)[C@H](C(C)C)NC(=O)[C@@H]2CCCN2C(=O)[C@H](Cc2ccccc2)NC(=O)[C@H](CC(C)C)NC(=O)[C@H](CCCN)NC(=O)[C@H](C(C)C)NC(=O)[C@@H]2CCCN2C(=O)[C@H](Cc2ccc(NC(=O)C(C)(C)C)cc2)NC1=O (cyclo(FPV[Orn]L[Phe(4-NH2)](Piv)PV[Orn]L)) , its MIC = 4

Bench note, Streptococcus mitis: entry CC(C)C[C@@H]1NC(=O)[C@H](CCCN)NC(=O)[C@H](C(C)C)NC(=O)[C@@H]2CCCN2C(=O)[C@H](Cc2ccccc2)NC(=O)[C@H](CC(C)C)NC(=O)[C@H](CCCN)NC(=O)[C@H](C(C)C)NC(=O)[C@@H]2CCCN2C(=O)[C@H](Cc2ccc(N(Cc3ccccc3)Cc3ccccc3)cc2)NC1=O (cyclo(FPV[Orn]L[X4]PV[Orn]L)) , its MIC = 64

Bench note, Streptococcus mitis: entry CC(C)C[C@@H]1NC(=O)[C@H](CCCN)NC(=O)[C@H](C(C)C)NC(=O)[C@@H]2CCCN2C(=O)[C@H](Cc2ccccc2)NC(=O)[C@H](CC(C)C)NC(=O)[C@H](CCCN)NC(=O)[C@H](C(C)C)NC(=O)[C@@H]2CCCN2C(=O)[C@H](Cc2ccc([N+](=O)[O-])cc2)NC1=O (cyclo(FPV[Orn]L[Phe(4-NO2)]PV[Orn]L)) , its MIC = 32

Bench note, Streptococcus mitis: entry CC(C)C[C@@H]1NC(=O)[C@H](CCCN)NC(=O)[C@H](C(C)C)NC(=O)[C@@H]2CCCN2C(=O)[C@H](Cc2ccccc2)NC(=O)[C@H](CC(C)C)NC(=O)[C@H](CCCN)NC(=O)[C@H](C(C)C)NC(=O)[C@@H]2CCCN2C(=O)[C@H](Cc2ccc(NC(=O)C(C)C)cc2)NC1=O (cyclo(FPV[Orn]L[Phe(4-NH2)](Isobutyryl)PV[Orn]L)) , its MIC = 32

Bench note, Streptococcus mitis: entry CC(C)C[C@@H]1NC(=O)[C@H](CCCN)NC(=O)[C@H](C(C)C)NC(=O)[C@@H]2CCCN2C(=O)[C@H](Cc2ccccc2)NC(=O)[C@H](CC(C)C)NC(=O)[C@H](CCCN)NC(=O)[C@H](C(C)C)NC(=O)[C@@H]2CCCN2C(=O)[C@H](Cc2ccc([N+](C)(C)C)cc2)NC1=O.[I-] (cyclo(FPV[Orn]L[X2]PV[Orn]L)) , its MIC = 8
